These entries and their values trace back to patent US20230183193A1.

System: Stellaria media
Experiment: Pre-emergence herbicidal action, STEME
Format: in vivo
Details: dosage 320 g/ha, scored visually after 3 weeks vs untreated controls
From the text: 1. Pre-Emergence Herbicidal Action Against Harmful Plants Seeds of monocotyledonous and dicotyledonous weed plants and crop plants are laid out in sandy loam soil in wood-fiber pots and covered with soil. […] The damage to the test plants is scored visually after a test period of 3 weeks by comparison with untreated controls (herbicidal activity in percent (%): 100% activity=the plants have died, 0% activity=like control plants). […]
Would you kindly list Herbicidal activity STEME for each of these molecules?
One number for each entry, in %.

Field: example entries. Status: answers known.
>  <sample-smiles>
CCn1nnnc1NC(=O)c1ccc(C(F)F)c(S(=O)(=O)CC)c1F

>  <test-target>
Stellaria media

>  <quantity-measured>
Herbicidal activity STEME

>  <val>
90

$$$$
>  <sample-smiles>
CCn1nnnc1NC(=O)c1ccc(C(F)F)c(S(C)(=O)=O)c1Br

>  <test-target>
Stellaria media

>  <quantity-measured>
Herbicidal activity STEME

>  <val>
100

$$$$
>  <sample-smiles>
CCSc1c(C(F)F)ccc(C(=O)Nc2ncnn2C)c1C1CC1

>  <test-target>
Stellaria media

>  <quantity-measured>
Herbicidal activity STEME

>  <val>
90

$$$$
>  <sample-smiles>
CCS(=O)(=O)c1c(C(F)F)ccc(C(=O)Nc2ncnn2C)c1Cl

>  <test-target>
Stellaria media

>  <quantity-measured>
Herbicidal activity STEME

>  <val>
100

$$$$

Now look at this entry.
(Q) Recorded Herbicidal activity STEME for CSc1c(C(F)F)ccc(C(=O)Nc2nnnn2C)c1C , please?
(A) 100
